FYI, the data here is from patent US6423519B1.

System name: human GGTase (Homo sapiens, UniProt P53609)
Test name: Human GGTase inhibition (Hu GG)
Format: biochemical
Assay setup: Table 3 Piperidine Analogs; read-out: IC50 (nM) Hu GG
Peptide text beside a SMILES is read from it.
Readout label: IC50

# annotated cases, reported IC50 shown
{"Molecule": "N[C@@H](CS)C(=O)N1CCC(C(=O)NCc2ccccc2-c2ccccc2)(c2ccccc2)CC1 [Compound 53b]", "IC50": "< 1000 nM"}
{"Molecule": "N[C@@H](CS)C(=O)N1CCC(C(=O)NCc2cccc(OC(F)(F)F)c2)(c2ccccc2)CC1 [Compound 53p]", "IC50": "< 1000 nM"}
{"Molecule": "N#CC1CCC(CNC(=O)C2(c3ccccc3)CCN(C(=O)[C@@H](N)CS)CC2)CC1 (some centres unmarked) [Compound 53n]", "IC50": "> 1000 nM"}
{"Molecule": "N[C@@H](CS)C(=O)N1CCC(C(=O)NCCCCc2ccccc2)(c2ccccc2)CC1 [Compound 53aa]", "IC50": "> 1000 nM"}
{"Molecule": "CC(C)C[C@H](NC(=O)C1(c2ccccc2)CCN(C(=O)[C@@H](N)CS)CC1)C(=O)N[C@@H](C)C(=O)O [Compound 99a]", "IC50": "> 500 nM"}
{"Molecule": "CC(C)C[C@H](NC(=O)C1(c2ccccc2)CCN(C(=O)[C@@H](N)CS)CC1)C(=O)N[C@@H](C)C(=O)N[C@@H](C)C(=O)O [Compound 99b] (HELM PEPTIDE1{C.[O=C(C1(c2ccccc2)CCN([*:1])CC1)[*:2]].L.A.A}$$$$V2.0)", "IC50": "> 500 nM"}
{"Molecule": "COc1ccccc1CNC(=O)C1(c2ccccc2)CCN(C(=O)[C@@H](N)CS)CC1 [Compound 53u]", "IC50": "> 500 nM"}
{"Molecule": "N[C@@H](CS)C(=O)N1CCC(C(=O)NC2c3ccccc3-c3ccccc32)(c2ccccc2)CC1 [Compound 53z]", "IC50": "> 1000 nM"}

API: the following record is the query input.
Find IC50 for CC(C)C[C@H](NC(=O)C1(c2ccccc2)CCN(C(=O)[C@@H](N)CS)CC1)C(=O)O [Compound 53a] on human GGTase (Homo sapiens, UniProt P53609) and write it down.
< 100 nM

----------
System name: C. albicans GGPTase (Candida albicans, UniProt Q8J224+Q9Y764)
Sequence (Q9Y764 1-398): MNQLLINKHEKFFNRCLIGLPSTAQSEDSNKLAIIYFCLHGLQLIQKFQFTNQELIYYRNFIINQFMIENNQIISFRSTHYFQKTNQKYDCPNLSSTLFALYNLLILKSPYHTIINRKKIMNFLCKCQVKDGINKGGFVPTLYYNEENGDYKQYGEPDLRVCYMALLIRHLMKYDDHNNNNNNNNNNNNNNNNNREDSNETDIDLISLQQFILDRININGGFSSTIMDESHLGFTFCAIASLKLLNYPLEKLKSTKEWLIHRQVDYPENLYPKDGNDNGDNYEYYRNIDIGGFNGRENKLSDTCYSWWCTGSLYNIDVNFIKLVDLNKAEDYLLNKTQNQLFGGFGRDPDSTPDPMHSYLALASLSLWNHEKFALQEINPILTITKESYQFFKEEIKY
Sequence (Q8J224 1-306): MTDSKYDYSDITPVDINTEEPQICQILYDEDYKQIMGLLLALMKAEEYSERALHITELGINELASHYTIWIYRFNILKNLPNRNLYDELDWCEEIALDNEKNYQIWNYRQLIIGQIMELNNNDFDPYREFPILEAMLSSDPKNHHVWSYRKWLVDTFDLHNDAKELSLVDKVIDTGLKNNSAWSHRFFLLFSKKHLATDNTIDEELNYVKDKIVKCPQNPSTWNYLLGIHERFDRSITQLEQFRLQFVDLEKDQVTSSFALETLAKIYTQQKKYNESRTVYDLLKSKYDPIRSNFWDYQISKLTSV
Test name: biochemical
Assay setup: Table 3 Piperidine Analogs; read-out: IC50 (nM) Ca GG
Reported IC50 is given for each of the following molecules.

{"Molecule": "CC(C)CCNC(=O)C1(c2ccccc2)CCN(C(=O)[C@@H](N)CS)CC1 [Compound 53c]", "System name": "C. albicans GGPTase (Candida albicans, UniProt Q8J224+Q9Y764)", "Readout label": "IC50", "Reported": "< 100 nM"}
{"Molecule": "CC(C)C[C@H](NC(=O)C1(c2ccccc2)CCN(C(=O)[C@@H](N)CS)CC1)C(=O)N[C@@H](C)C(=O)O [Compound 99a]", "System name": "C. albicans GGPTase (Candida albicans, UniProt Q8J224+Q9Y764)", "Readout label": "IC50", "Reported": "< 50 nM"}

Consider the additional molecule presented here.
Quote IC50 reported for COc1ccccc1CNC(=O)C1(c2ccccc2)CCN(C(=O)[C@@H](N)CS)CC1 [Compound 53u] please.
< 100 nM

----------
System name: human GGTase (Homo sapiens, UniProt P53609)
Test name: Human GGTase inhibition (Hu GG)
Assay type: biochemical
Assay setup: Table 5; read-out: IC50 (nM) Human
From the text: As described below, a variety of different compounds were synthesized and tested for inhibitory activity against human and Candida GGTase. Exemplary synthesis schemes for generating prenyltransferase inhibitors useful in the methods and compositions of the present invention are shown in FIGS. 1-56. Tables 1-5 provide Structure-Activity relationship (SAR) data for several different classes of prenyltransferase inhibitors.
Readout label: IC50

Worked set:
{"Compound": "CC(C)C[C@H](NC(=O)c1ccc(NC[C@@H](N)CS)cc1-c1ccccc1)C(=O)O [Compound 17]", "IC50": "< 10 nM"}
{"Compound": "CC(C)C[C@H](NC(=O)[C@H](Cc1ccc2ccccc2c1)NC[C@@H](NC[C@@H](N)CS)C(C)C)C(=O)O [Compound 9]", "IC50": "< 100 nM"}

Would you kindly look at the next entry?
Answer with IC50 of CC(C)C[C@@H](C(=O)O)N(C)C(=O)c1ccc(NC[C@@H](N)CS)cc1-c1ccccc1 [Compound 19] measured for human GGTase (Homo sapiens, UniProt P53609).
< 10 nM

----------
compounds and their reported pIC50
System name: C. albicans GGPTase (Candida albicans, UniProt Q8J224+Q9Y764)
Sequence (Q9Y764 1-398): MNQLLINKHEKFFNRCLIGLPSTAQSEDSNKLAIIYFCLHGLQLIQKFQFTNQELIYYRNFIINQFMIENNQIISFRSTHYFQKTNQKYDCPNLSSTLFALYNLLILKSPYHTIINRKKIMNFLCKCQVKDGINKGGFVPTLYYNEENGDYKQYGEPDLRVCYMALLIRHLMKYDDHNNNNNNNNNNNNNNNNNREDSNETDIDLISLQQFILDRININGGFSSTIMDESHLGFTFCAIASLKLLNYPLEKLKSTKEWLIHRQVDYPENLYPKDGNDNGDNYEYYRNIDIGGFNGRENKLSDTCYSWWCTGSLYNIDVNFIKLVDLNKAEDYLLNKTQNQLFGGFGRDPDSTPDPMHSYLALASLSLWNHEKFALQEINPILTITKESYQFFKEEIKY
Sequence (Q8J224 1-306): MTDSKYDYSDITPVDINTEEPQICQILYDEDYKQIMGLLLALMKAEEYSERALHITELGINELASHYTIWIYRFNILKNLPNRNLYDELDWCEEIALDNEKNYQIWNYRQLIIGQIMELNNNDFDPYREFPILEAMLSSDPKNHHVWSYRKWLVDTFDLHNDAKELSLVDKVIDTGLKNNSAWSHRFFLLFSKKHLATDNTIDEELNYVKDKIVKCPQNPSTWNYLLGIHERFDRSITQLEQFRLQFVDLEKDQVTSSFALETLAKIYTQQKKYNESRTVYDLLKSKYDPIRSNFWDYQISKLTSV
Test name: biochemical
pIC50: −log10 of the molar value. Peptide text beside a SMILES is read from it.

These solved cases illustrate the format of a correct answer.
{"Compound": "CC(C)/C=C1\\NC(=O)N(C2(c3ccccc3)CCN(C(=O)C(N)CS)CC2)C1=O (stereo not shown)", "Reported": "> 7.30"}
{"Compound": "CC1(C(=O)NCc2ccccc2)CCN(C(=O)[C@@H](N)CS)CC1", "Reported": "> 6.30"}
{"Compound": "CC(C)C[C@H](NC(=O)[C@H](Cc1cccc2ccccc12)NC(=O)[C@H](CC(=O)O)NC(=O)[C@@H](N)CS)C(=O)O [Compound 5d] (HELM PEPTIDE1{C.D.[O=C([C@H](Cc1cccc2ccccc12)N[*:1])[*:2]].L}$$$$V2.0)", "Reported": "< 6.00"}

Attention now turns to another entry.
Read off the recorded pIC50 for N[C@@H](CS)C(=O)N1CCC(C(=O)NCc2ccccc2)CC1
< 6.00

----------
Parameter: IC50. Scope: all listed entries.
System name: human GGTase (Homo sapiens)
Test name: Human GGTase inhibition (Hu GG)
Assay type: biochemical
Assay setup: Table 1 Peptide Analogs; read-out: IC50 (nM) Hu GG
Peptide text beside a SMILES is read from it.

Known results for compounds:
{"Compound": "CC(C)C[C@H](NC(=O)[C@H](Cc1ccc2ccccc2c1)NC[C@@H](NC[C@@H](N)CS)C(C)C)C(=O)O", "System name": "human GGTase (Homo sapiens)", "Readout label": "IC50", "Reported": "< 100 nM"}
{"Compound": "CC(C)C[C@H](NC(=O)[C@H](Cc1cccc2ccccc12)NC(=O)[C@H](CN)NC(=O)[C@@H](N)CS)C(=O)O [Compound 5b] (HELM PEPTIDE1{C.[NC[C@H](N[*:1])C(=O)[*:2]].[O=C([C@H](Cc1cccc2ccccc12)N[*:1])[*:2]].L}$$$$V2.0)", "System name": "human GGTase (Homo sapiens)", "Readout label": "IC50", "Reported": "< 500 nM"}

Here is another compound to look at.
Give IC50 for NC[C@H](NC(=O)[C@@H](N)CS)C(=O)N1CCC(C(=O)NCc2ccncc2)(c2ccccc2)CC1 [Compound 89c]
> 1000 nM
